test system: HEK-293T; assay: Multiplex assay against HEK293T; assay type: toxicity, cell-based; conditions: human, 24 h, 1 µM, compound concentration 1 uM, replicate 2;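 further: share of the cells with healthy nuclei that show this phenotype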
# Population Tubulin-Different-Phenotype (%) per entry
measurement name: Population Tubulin-Different-Phenotype (%)

molecule=c1cn2cc(-c3ccc4cn[nH]c4c3)nc(Nc3ccc(N4CCOCC4)cc3)c2n1 system=HEK-293T observed_result=61%
molecule=CCN(CC)CCCCNc1ncc2cc(-c3cc(OC)cc(OC)c3)c(NC(=O)NC(C)(C)C)nc2n1 system=HEK-293T observed_result=60%
molecule=NC(=O)Nc1cc(-c2cccc(F)c2)sc1C(=O)N[C@H]1CCCNC1 system=HEK-293T observed_result=62%
molecule=Cc1cc(C)cc(-c2cnc3cc(Cl)c(-c4cccc(O)c4)cc3c2OCCCN)c1 system=HEK-293T observed_result=79%
molecule=C=CC(=O)Nc1cccc(C(=O)Nc2ccc(Nc3cc(-c4[nH]c(SC)nc4C)ccn3)cc2)c1 system=HEK-293T observed_result=34%
molecule=COc1cc(-n2cnc3cc(-c4ccc(Cl)cc4)sc3c2=O)ccc1OCCN1CCCC1 system=HEK-293T observed_result=66%
molecule=OC1(c2ccc(Cl)cc2)CCN(Cc2c[nH]c3ccccc23)CC1 system=HEK-293T observed_result=50%
molecule=Cn1cc(-c2[nH]c3cc(NC(=O)[C@H](N)C4CCCCC4)cc4c3c2C=NNC4=O)cn1 system=HEK-293T observed_result=53%
molecule=COc1ncc(-c2ccc3nccc(-c4ccnnc4)c3c2)cc1NS(=O)(=O)c1ccc(F)cc1F system=HEK-293T observed_result=24%
molecule=C[C@@]1(C(=O)Nc2ccc(F)nc2)CCCN1c1nc(Nc2cc(C3CC3)n[nH]2)c2cccn2n1 system=HEK-293T observed_result=95%
molecule=Cc1nc(-c2cn3c(n2)-c2ccc(-c4cnn(C(C)(C)C(N)=O)c4)cc2OCC3)n(C(C)C)n1 system=HEK-293T observed_result=39%
molecule=CC(C)(O)CNc1ncc(-c2ccnc(Nc3ccnc(Cl)c3)n2)c(CC2CC2)n1 system=HEK-293T observed_result=68%
molecule=CC[C@H](C)C(=O)O[C@H]1C[C@@H](C)C=C2C=C[C@H](C)[C@H](CC[C@@H]3C[C@@H](O)CC(=O)O3)[C@H]21 system=HEK-293T observed_result=20%
molecule=Cc1c(-c2ccc(O)cc2)n(Cc2ccc(OCCN3CCCCCC3)cc2)c2ccc(O)cc12 system=HEK-293T observed_result=53%
molecule=CN1CCN(CCOc2cc(OC3CCOCC3)c3c(Nc4c(Cl)ccc5c4OCO5)ncnc3c2)CC1 system=HEK-293T observed_result=66%
molecule=CC(C)C(=O)Nc1n[nH]c2cc(-c3cccc(NS(=O)(=O)C4CC4)c3)ccc12 system=HEK-293T observed_result=15%
molecule=CN(C)C(=O)/C(C#N)=C/c1ccc(-c2nc3cnc4[nH]ccc4c3n2C2CCCCC2)o1 system=HEK-293T observed_result=34%
molecule="O=C1NCN(c2ccccc2)C12CCN(CCCOc1ccc(F)cc1)CC2 [SPIRAMIDE]" system=HEK-293T observed_result=29%
molecule="COc1cccc([C@@H](C)NCCCc2ccccc2Cl)c1.Cl [TECALCET HYDROCHLORIDE]" system=HEK-293T observed_result=44%
molecule=O=C(NCCCC1CCCCC1)c1ccc(CNC(=O)c2cnn(-c3ccccc3)c2C(F)(F)F)cc1 system=HEK-293T observed_result="20% [middle of 4 runs]"
molecule=CN(C)CC#Cc1ccc(OCCCc2sc(N3CCc4cccc(C(=O)Nc5nc6ccccc6s5)c4C3)nc2C(=O)O)c(F)c1 system=HEK-293T observed_result=24%
molecule="Cl.N#Cc1ccc2[nH]cc(CCCCN3CCN(c4ccc5oc(C(N)=O)cc5c4)CC3)c2c1 [VILAZODONE HYDROCHLORIDE]" system=HEK-293T observed_result=58%
molecule=CNc1nc(NCc2ccc(NS(C)(=O)=O)cc2Cl)cc(-c2ccccn2)n1 system=HEK-293T observed_result=31%
molecule=Cc1[nH]c(/C=C2\C(=O)Nc3ccc(S(=O)(=O)N(C)c4cccc(Cl)c4)cc32)c(C)c1C(=O)N1CCN(C)CC1 system=HEK-293T observed_result=71%
molecule="CC(C)NCC(O)COc1ccc(CCOCC2CC2)cc1.Cl (stereo not drawn) [BETAXOLOL HYDROCHLORIDE]" system=HEK-293T observed_result=32%
molecule=Cc1nc(-c2ccc(-c3ccc(C(=O)N4CCc5cc6c(cc54)C4(CCN(C)CC4)CO6)cc3)c(C)c2)no1 system=HEK-293T observed_result=73%
molecule="CN1CCCC(n2nc(Cc3ccc(Cl)cc3)c3ccccc3c2=O)CC1.Cl (stereo not drawn) [AZELASTINE HYDROCHLORIDE]" system=HEK-293T observed_result=74%
molecule=CN1CCN(c2ccc(OC(F)(F)F)c(Nc3ncc4c(n3)-c3c(c(C(N)=O)nn3CCO)CC4)c2)CC1 system=HEK-293T observed_result=62%
